# assayProcedure: P. aeruginosa biofilm formation inhibitors, primary screen, strain PAO1, LB-PBS medium, absorbance 600 nm (AID 1176); further: test concentration not given here
# conditionSummary: P. aeruginosa PAO1 growth/biofilm, A600, 12 h; higher = more signal
quantityKind: z-score
// print number alone

Sample answers from the record:
C=CCC(OC(C)=O)[C@@H]1[C@@H](N(Cc2cccc3ccccc23)C(=O)c2ccc(C)cc2)c2cc(OCCCO)ccc2N1C(=O)c1ccc2ccccc2n1 (stereo partly drawn)    -0.877
COc1ccc(C(O)C2C=CC3C(=O)N(C)C(=O)C3N2Nc2ccc([N+](=O)[O-])cc2[N+](=O)[O-])cc1OCc1ccccc1 (stereo not drawn)    -0.0067
CC(C)CNC(=O)[C@@H]1c2ccccc2C(=O)N(Cc2ccccc2Cl)[C@H]1c1ccc(CO)cc1    0.0435
COCCOC(=O)N1C(=O)[C@@]2(c3cc(C#Cc4ccc(OC)cc4)ccc31)[C@H](C(=O)N1CCCCCCC1)[C@H]1C(=O)O[C@H](c3ccccc3)[C@H](c3ccccc3)N1[C@@H]2c1ccccc1OCCO    2.36
CC(=O)NCCCC[C@@H]1NC(=O)[C@@H]2C[C@H](C(=O)NCCCCCC[N+](C)(C)C)[C@H](c3ccc(O)cc3)N2C1=O    -0.807

(Q) I have this molecule here, CO[C@H]1O[C@H](CO)[C@@H](OC(=O)Nc2ccccc2)[C@@H]2OC(=O)[C@H](Cc3ccccc3)C/C=C/C[C@@H](Cc3ccccc3)C(=O)O[C@@H]12 , and I need its recorded z-score.
(A) 0.385

(Q) I have this molecule here, CN1C(=O)[C@]2(CCS(=O)(=O)c3ccccc3)N=C(c3ccc(OCCCO)cc3)O[C@@H]2c2ccccc21 , and I need its recorded z-score.
(A) -0.0279

(Q) I have this molecule here, C=C(/C(=C/C[C@H](OC(=O)c1ccncc1)c1ccccc1OCCO)c1cc(C(=O)OC)ccc1OC)C(C)C , and I need its recorded z-score.
(A) 0.297

Recorded values, source PubChem BioAssay.
